Ref: PubChem BioAssay (NCATS)

# Tested on: CRL-7250
# experiment summary: Cytotoxic Profiling of Annotated Libraries Using Quantitative High-Throughput Screening (AID 1296008); note: % is set by controls: 0 for no effect and ±100 for the full control effect; nearly all actives have a fitted effect of over 60% in size
# condition notes: Five cell lines viability, CellTiter-Glo ATP luminescence, 48-72 h; hits give low values
Inconclusive results are not listed.
Attribute: max response
Enter your answer as a number in %; do not include the unit.

Worked examples, 2 compounds total:
1) CC[C@H]1OC(=O)[C@H](C)C(=O)[C@H](C)[C@@H](OC2O[C@H](C)C[C@H](N(C)C)[C@H]2O)[C@@H](C)C[C@@H](C)C(=O)/C=C/[C@]1(C)O (stereo partly drawn) ... -0.333
2) COC(=O)C1=CO[C@@H](O[C@@H]2O[C@H](CO)[C@@H](O)[C@H](O)[C@H]2O)/C(=C\CO)[C@@H]1CC(=O)OCCc1ccc(O)cc1 ... 0.106

The observed max response for `C/C=C1\[C@H](O[C@@H]2O[C@H](CO)[C@@H](O)[C@H](O)[C@H]2O)OC=C(C(=O)OCCc2ccc(O)cc2)[C@H]1CC(=O)OCCc1ccc(O)cc1` when tested with CRL-7250 stands at 0.139

###

# Test system: Zika virus NS2B-NS3 protease (linked construct)
# experiment summary: Primary screen NINDS Rhodamine qHTS for Zika virus inhibitors (AID 1347160); note: nearly all actives have a fitted effect of over 55% in size
# condition notes: purified NS2B-NS3 protease, Rhodamine110 substrate fluorescence; series mostly up to 33.1 µM
Records with an inconclusive call do not appear. Calls of active or inactive are those of the source. Calls come from the whole dose curve; as a rule, active = well fitted inhibition curve with a large enough effect; inconclusive = small, poorly fitted or top-dose-only effect; inactive = no such curve, though single readings can be large or run the other way.
Select the correct class. Options are TRUE = active, FALSE = inactive and nothing else.

Recorded results for 4 compounds are shown here.
1) CC1(C)CC[C@]2(C(=O)O[C@@H]3O[C@H](CO)[C@@H](O)[C@H](O)[C@H]3O)CC[C@]3(C)C(=CCC4[C@@]5(C)C[C@H](O)[C@H](O[C@@H]6OC[C@@H](O)[C@H](O)[C@H]6O)[C@@](C)(CO)C5CC[C@]43C)C2C1 (stereo not given in full) ... FALSE
2) O=C(c1ccc(Cl)c([N+](=O)[O-])c1)N1CCN(c2ccccc2F)CC1 ... FALSE
3) O=C(O)CCc1cccc(O)c1O[C@@H]1O[C@H](CO)[C@@H](O)[C@H](O)[C@H]1O ... FALSE
4) COc1cc(/C=C/C(=O)OC[C@H]2O[C@@H](OC3CC(C)=C(C(=O)O)C(C)(C)C3)[C@H](O)[C@@H](O)[C@@H]2O)cc(OC)c1O (stereo not given in full) ... FALSE

Query block: What is the recorded call for this compound in the test? `C=C1C[C@]23C[C@@]1(O)CC[C@H]2[C@@]12C=C[C@H](O)[C@@](C)(C(=O)O1)[C@H]2[C@@H]3C(=O)O`
Result block: FALSE

Query block: State the result this test recorded for `CC(=O)[C@@H]1C[C@H](C(C)(C)O[C@@H]2O[C@H](CO)[C@@H](O)[C@H](O)[C@H]2O)CC[C@@]2(CO)OC(=O)C[C@@H]12` .
Result block: FALSE

Query block: Record lookup: outcome of this test for CC(CC(C)O[C@@H]1O[C@H](CO)[C@@H](O)[C@H](O)[C@H]1O)OC(=O)/C=C/c1ccc(O)cc1 (stereo not given in full) ?
Result block: TRUE

Query block: Can you look up the reported call for `Cc1nc2cc(-c3cc(F)cc(C#N)c3)ccc2s1` for me?
Result block: FALSE

Query block: Recorded test call requested for CCC(C)C1NC(=O)C2C(C)CCN2C(=O)C(CC(O)CO)OC(=O)CCNC(=O)C(C)N(C)C(=O)C(C(C)C)N(C)C1=O (stereo not given)
Result block: FALSE

Query block: Please indicate how the test categorized `COc1cc(Nc2nc3ccccc3nc2NS(=O)(=O)c2cccc(NC(=O)c3ccc(C)c(OC)c3)c2)cc(OC)c1` .
Result block: TRUE

Query block: Called result for COCC1OC(OC(C)(C)C2CCC3(C)C=C(C4CCC5C4(C)CC(O)C4OC(C(C)(C)O)CCC45C)CCC3O2)C(NC(C)=O)C(O)C1O (stereo not given)
Result block: FALSE

Query block: What classification did C=C1CC23CC1CCC2C12OC(=O)C(C)(C(O)CC1O)C2C3C(=O)O (stereo not given) end up with in this test?
Result block: FALSE

Query block: Outcome logged for `CC(=O)OC[C@]12[C@H](OC(C)=O)[C@H](OC(=O)c3ccccc3)[C@@H]3[C@@H](OC(C)=O)[C@]1(OC3(C)C)[C@H](C)C[C@H](OC(=O)c1ccccc1)[C@@H]2OC(=O)c1ccccc1` in this assay:
Result block: FALSE

Query block: Kindly provide the recorded test outcome for the following compound: CC1CC(=O)C2C(O)(C1)CC(O)C13OC1c1c(O)cccc1C(=O)C23O (stereo not given)
Result block: FALSE

Query block: Recorded test outcome, item `C=C1C(=O)O[C@@H]2C[C@]3(C)[C@@H](CCC(C)=O)[C@@H]3C[C@H]12`
Result block: FALSE
